Tested on: NUGC-3
assay-info: Cytotoxicity against human NUGC3 cells assessed as growth inhibition by SRB assay
Type: functional
The following compounds are shown together with reported GI50 values.
Supply the numeric figure in µM, leaving out any unit text.

Recorded results for 3 compounds are shown here.
structure: O=C(CCC1=CCN(CCc2cccc([N+](=O)[O-])c2)C1=O)NO
subject-of-test: NUGC-3
measurement-label: GI50
value-reported: 6.57
--
structure: O=C(CCC1=CCN(Cc2ccc(F)cc2)C1=O)NO
subject-of-test: NUGC-3
measurement-label: GI50
value-reported: 6.06
--
structure: N#Cc1cccc(CN2CC=C(CCC(=O)NO)C2=O)c1
subject-of-test: NUGC-3
measurement-label: GI50
value-reported: 4.12

Q) Could you share which GI50 value was measured for `CC(C)(C)c1ccc(CN2CC=C(CCC(=O)NO)C2=O)cc1` ?
A) 0.72

----------
assay-info: Cmax in Balb/c mouse at 20 mg/kg, po
Format: ADME, organism-based
Design: dose 20 mg/kg, route oral
condition-summary: in vivo
measurement-label: Cmax (ng/mL)
Supply the numeric figure in ng/mL, leaving out any unit text.

Q) Could you share which Cmax value was measured for `CC(C)(C)c1ccc(CN2CC=C(CCC(=O)NO)C2=O)cc1` ?
A) 462

----------
assay-info: Tmax in Balb/c mouse at 20 mg/kg, po
Type: ADME, organism-based
Parameters: dose 20 mg/kg, route oral
condition-summary: in vivo
measurement-label: Tmax (min)
Supply the numeric figure in min, leaving out any unit text.

Q) Could you share which Tmax value was measured for `CC(C)(C)c1ccc(CN2CC=C(CCC(=O)NO)C2=O)cc1` ?
A) 15

----------
assay-info: Tmax in Balb/c mouse at 30 mg/kg, po
Type: ADME, organism-based
Set-up: dose 30 mg/kg, route oral
condition-summary: in vivo
The following molecules are shown together with reported Tmax values.
Supply the numeric figure in min, leaving out any unit text.

structure: O=C(CCC1=CCN(Cc2ccc(F)cc2)C1=O)NO
measurement-units: min
Tmax: 15

As a next step, examine the molecule that follows.
Q) Could you share which Tmax value was measured for `O=C(CCC1=CCN(Cc2ccc(Br)cc2)C1=O)NO` ?
A) 9

----------
The following compounds are shown together with reported clearance values.
assay-info: Clearance in Balb/c mouse at 10 mg/kg, iv
Format: ADME, organism-based
Parameters: dose 10 mg/kg, route intravenous
condition-summary: in vivo
Supply the numeric figure in L/h/kg, leaving out any unit text.

Recorded results for 2 compounds are shown here.
structure: CC(C)(C)c1ccc(CN2CC=C(CCC(=O)NO)C2=O)cc1
value-reported: 2.9

structure: O=C(CCC1=CCN(Cc2ccc(Br)cc2)C1=O)NO
value-reported: 4.3

Q) Could you share which clearance value was measured for `O=C(CCC1=CCN(Cc2ccc(F)cc2)C1=O)NO` ?
A) 7.8

----------
assay-info: Oral bioavailability in Balb/c mouse at 30 mg/kg
Type: ADME, organism-based
condition-summary: in vivo
The following molecules are shown together with reported bioavailability values.
Supply the numeric figure in %, leaving out any unit text.

structure: O=C(CCC1=CCN(Cc2ccc(F)cc2)C1=O)NO
bioavailability, %: 30.6

As a next step, examine the molecule that follows.
Q) Could you share which bioavailability value was measured for `O=C(CCC1=CCN(Cc2ccc(Br)cc2)C1=O)NO` ?
A) 44.6

----------
assay-info: Apparent permeability across apical to basolateral side in human Caco2 cells at 100 uM
Assay type: ADME, cell-based
condition-summary: Caco-2
measurement-label: Papp A→B at 100 µM (×10⁻⁶ cm/s)
Supply the numeric figure in ×10⁻⁶ cm/s, leaving out any unit text.

Q) Could you share which Papp A→B at 100 µM value was measured for `O=C(CCC1=CCN(Cc2ccc(F)cc2)C1=O)NO` ?
A) 7.8
